Tested on: SNB-19 CNS
Assay: NCI-60 one-dose screen, 48 h
Details: 10 µM unless noted
Compounds without any hit were thinned out: in the full panel of roughly 83,000, 20% have a hit. Active and inactive are the calls of the source. The calls were made as follows: active = growth percent below 10; inactive = the rest.
The categories you may choose from are label 1 for active, label 0 for inactive

Please review the following examples before continuing.
O=C(OC[C@@H]1CO1)c1cccc2c(=O)c3ccccc3[nH]c12 :: label 1
Cc1cccc(NC(=O)CSc2nc3ccc([N+](=O)[O-])cc3[nH]2)c1 :: label 0

Please state the recorded outcome for this molecule: Clc1ccc(-c2nc(-c3c[nH]c4ncccc34)cs2)cc1
label 0

Please state the recorded outcome for this molecule: CC(C)CSc1oc(-c2ccccc2)nc1S(=O)(=O)c1ccccc1
label 0

Please state the recorded outcome for this molecule: Cc1ccc(-c2cc(C(=O)N3N=C(c4ccc(N)cc4)CC3c3ccc(Cl)cc3)c3ccccc3n2)cc1 (stereo not given)
label 0

* * *

Test system: HT29 colon
Test: NCI-60 one-dose screen, 48 h (100 = growth as untreated, 0 = no growth, -100 = all killed)
Conditions: 10 µM unless noted
Compounds without any hit were thinned out: in the full panel of roughly 83,000, 20% have a hit. The source made the active and inactive calls. How the source made its calls: active means growth percent below 10; inactive means the rest.
MEASURED ENDPOINT: growth

Here's what some known entries look like.
COc1ccc(C2=C/C(=C\c3ccc(Cl)cc3)C(=O)N2/N=C/c2ccc(Cl)cc2)cc1 :: 86.8% (inactive)
COc1ccc(Cc2nnc(Nc3nc4ccccc4s3)s2)cc1 :: 110% (inactive)

Give growth (HT29 colon) of the following molecule: CN1CCN(Cc2cc(NC(=O)c3cccc(C#Cc4cccc5[nH]nc(N)c45)c3)cc(C(F)(F)F)c2)CC1
-15.8% (active)

Give growth (HT29 colon) of the following molecule: COc1ccc(NC(=O)c2sc3nc(C)c(C(O)c4ccccc4)cc3c2N)cc1 (configuration not stated)
13.1% (inactive)

* * *

Test system: HT29 colon
Test: NCI-60 one-dose screen, 48 h
Conditions: 10 µM unless noted
Compounds without any hit were thinned out: in the full panel of roughly 83,000, 20% have a hit. Calls of active or inactive are those of the source. The calls were made as follows: active = growth percent below 10; inactive = the rest.
The categories you may choose from are yes (active), no (inactive)

Please review the following examples before continuing.
COc1cccc(/C=C2\COc3ccc(O)cc3C2=O)c1 :: no
Clc1ccc(-c2cn3ccsc3n2)c(Cl)c1Cl :: no
Cc1c2cc[nH]c(=O)c2c(C)c2c1[nH]c1ccc(OC(=O)c3ccccc3)cc12 :: no
Cc1ccc(O)c(NC(=O)c2ccc(CNc3ccnc(C(F)(F)F)c3)cc2)c1 :: no
CC(C)CSc1oc(-c2ccccc2)nc1S(=O)(=O)c1ccccc1 :: no

Next:
Please state the recorded outcome for this compound: N#Cc1nc2c(S(=O)(=O)c3ccccc3)c(N)n(Cc3cccnc3)c2nc1C#N
no

* * *

Tested on: K-562 leukemia
Experiment: NCI-60 one-dose screen, 48 h (100 = growth as untreated, 0 = no growth, -100 = all killed)
Details: 10 µM unless noted
This is part of a sample that, as a whole, favours compounds with a hit. Of some 83,000 tested, about 20% had one in any assay.
Parameter: growth. Scope: all listed entries.
Write down the numeric answer in % and omit the unit.

Here's what some known entries look like.
Cc1ccc(/C=C/C(=O)c2ccc(NC(=O)CSc3nc4c([nH]3)c(=O)n(C)c(=O)n4C)cc2)c(C)c1 :: 55.9
COc1ccc2c(c1)c(-c1nonc1-c1cn(C)c3ccc(OC)cc13)cn2C :: 13
N#Cc1c(Nc2ccc(F)cc2)n[nH]c1-c1cccs1 :: 99.2
N/C(=N\c1nc2ccccc2s1)NC(=NC1CCCCC1)NC1CCCCC1 :: 3.16
CCCCCCNc1nc(NCCCCCC)c2[nH]c(NCCCCCC)nc2n1 :: -19.2

Return reported growth; argument: COc1cccc(/C=C2\COc3ccc(O)cc3C2=O)c1
5.52

Return reported growth; argument: O=C(Nc1cccnc1Nc1ccc(Cl)cc1)c1cn(Cc2ccc(F)cc2)nn1
108

Return reported growth; argument: COc1ccc(/C=C/C(=O)c2ccc(Nc3nc(Nc4ccc(F)cc4)nc(Nc4ccc(Cl)cc4)n3)cc2)cc1
85.4

Return reported growth; argument: Cc1ccc2[nH]c(=O)c3c(c2c1)OC(N)=C(C#N)C31C(=O)c2cccc3cccc1c23 (stereo unspecified)
87.8

Return reported growth; argument: COc1ccc(C2CC(c3ccc4c(c3)OCO4)=Nc3c(N)ncnc3N2)cc1 (stereo unspecified)
99.6

Return reported growth; argument: CCOC(=O)c1cn2ncnc(Oc3ccc(NC(=O)NC4CC4)c(F)c3)c2c1C
88.6

Return reported growth; argument: CCCn1c(=S)sc2c1nc(C)n1c(Nc3ccccc3)nnc21
37.6

Return reported growth; argument: O=C(c1ccc(Cl)cc1Cl)N1c2ccccc2Sc2ccccc21
-42.2

Return reported growth; argument: COc1cc2c(/C=C3\C(=O)Nc4ccccc43)c(C(=O)O)[nH]c2cc1C
103

Return reported growth; argument: Cc1cc(C)c(-c2c(O)c(Br)c(-c3c(C)cc(C)c(Br)c3C)c(O)c2Br)c(C)c1Br
15.2

Return reported growth; argument: CC[C@H](CC[C@@H](C)[C@H]1CC[C@H]2[C@@H]3CC[C@@H]4CC(=O)/C(=C\c5ccncc5)C[C@]4(C)[C@H]3CC[C@]12C)C(C)C
97

Return reported growth; argument: CCN1C(=S)N(CC)C2C1NC(=S)N2/N=C/C=C/c1ccccc1OC (stereo unspecified)
10.2

Return reported growth; argument: O=C(O)CCCc1cnc2c3sccc3nc(SCc3c(Cl)cccc3Cl)n12
20.7

Return reported growth; argument: S=c1[nH]c2cc(Cl)ccc2o1
90.7

Return reported growth; argument: C=CCN=C(N)SCCCCCCSC(N)=NCC=C
79.2

Return reported growth; argument: Cn1c(/C=C/[N+](=O)[O-])cc2ccccc21
7.24

* * *

System: A498 renal
Experiment: NCI-60 one-dose screen, 48 h
Details: 10 µM unless noted
The panel holds about 83,000 compounds, 20% with a hit somewhere; the sample as a whole holds those more often. Calls of active or inactive are those of the source. The calls were made as follows: active = growth percent below 10; inactive = the rest.
The categories you may choose from are yes (active), no (inactive)

CC(/C=C1\SC(=S)N(CC(=O)NC(Cc2c[nH]c3ccccc23)C(=O)O)C1=O)=C\c1ccccc1 (stereo not drawn) :: no
COc1ccc(-c2ccc(=O)oc2C#Cc2cc(OC)c(OC)c(OC)c2)cc1O :: yes

Next:
Please state the recorded outcome for this compound: Cc1[nH]c(/C=C/C(=O)c2ccc(C(F)(F)F)c(F)c2)c(C)c1C(=O)NCC(C)C
no

* * *

Tested on: RPMI-8226 leukemia
Test: NCI-60 one-dose screen, 48 h (100 = growth as untreated, 0 = no growth, -100 = all killed)
Settings: 10 µM unless noted
About 83,000 compounds went through this panel and 20% of them were active in at least one assay; those are over-represented in the sample as a whole.
MEASURED ENDPOINT: growth (%)
Write down the numeric answer in % and omit the unit.

Return reported growth; argument: CCN(CC)CCNC(=O)c1ccc(-c2nc3ccc4[nH]ncc4c3c3c2CCCC3)cc1
52.1

Return reported growth; argument: COc1cc(N2C(=O)[C@H](c3ccccc3)C2c2ccc(SC)cc2)cc(OC)c1OC (some centres undefined)
-9.2

Return reported growth; argument: COc1cccc(Nc2ccnc3[nH]c4ccc([N+](=O)[O-])cc4c23)c1
65.2

Return reported growth; argument: CN1C(=O)/C(=C/c2ccc(C(=O)Nc3ncc(Cc4ccc(F)cc4)s3)cc2)SC1=S
54.6

Return reported growth; argument: Nc1nc(C(=O)N/N=C/c2ccc(N3CCOCC3)cc2)nn1-c1ccc(S(N)(=O)=O)cc1
102

Return reported growth; argument: Cn1c(O)c(C(/C=C/c2ccccc2)=Nc2ccccc2N)c(=O)n(C)c1=O
58.7

* * *

System: DU-145 prostate
Assay: NCI-60 one-dose screen, 48 h
Conditions: 10 µM unless noted
Description: Cells are grown in 96 well plates and exposed to the test compound for 48 hours. Compounds are tested at a single concentration, which is 10^-5 M for most compounds. The reported endpoint is percent growth (GI% or GIPRCNT), where numbers from 0 - 100% represent growth inhibition, and numbers from -100% - 0 represent cell death. For example, a value of 40 represents 60% growth inhibition. A value of 0 means no net growth occurred over the course of the experiment. […]
Compounds without any hit were thinned out: in the full panel of roughly 83,000, 20% have a hit. Calls of active or inactive are those of the source. The calls were made as follows: active = growth percent below 10; inactive = the rest.
The categories you may choose from are True = active, False = inactive

Please review the following examples before continuing.
COc1ccc2c(c1)c(-c1cc(-c3cn(C)c4ccc(OC)cc34)on1)cn2C :: False
CN1CCN(Cc2ccc(NC(=O)c3cncc(C#Cc4cnn5ccccc45)c3)cc2C(F)(F)F)CC1 :: True
C=CC(C)(O)CC/C=C(\CO)C(=O)OC1C(C)OC(O[C@](C)(C=C)CC/C=C(\CO)C(=O)O[C@H]2C[C@@]3(C(=O)OC4OC(CO)C(O)C(O)C4OC4OC(C)C(OC5OC(CO)C(O)C5O)C(OC5OC(CO)C(O)C(O)C5O)C4O)C(CC2(C)C)C2=CCC4[C@@]5(C)CC[C@H](OC6OC(COC7OC(C)C(O)C(O)C7OC7OCC(O)C(O)C7O)C(O)C(O)C6NC(C)=O)C(C)(C)C5CC[C@@]4(C)[C@]2(C)C[C@H]3O)C(O)C1O (some centres not stated) :: True
COC1=CC(c2ccc[nH]2)=N/C1=C\c1[nH]c(C)c(CC(=O)OCc2ccccc2)c1C :: False
O=C(Cn1nnc([N+](=O)[O-])n1)c1ccccc1 :: False
O[C@@H](c1cc(C(F)(F)F)nc2c(C(F)(F)F)cccc12)[C@H]1CCCCN1 :: False

Next:
Please state the recorded outcome for this compound: CCN(CC)c1ccc(N2C(=O)/C(=C/c3cccs3)SC2=S)cc1
False

The reported measurements were obtained from PubChem BioAssay (NCI).
